# target desc: DGKα (Homo sapiens (Human), UniProt P23743)
# Sequence (P23743 other isoform, or with tags, fused parts or gaps): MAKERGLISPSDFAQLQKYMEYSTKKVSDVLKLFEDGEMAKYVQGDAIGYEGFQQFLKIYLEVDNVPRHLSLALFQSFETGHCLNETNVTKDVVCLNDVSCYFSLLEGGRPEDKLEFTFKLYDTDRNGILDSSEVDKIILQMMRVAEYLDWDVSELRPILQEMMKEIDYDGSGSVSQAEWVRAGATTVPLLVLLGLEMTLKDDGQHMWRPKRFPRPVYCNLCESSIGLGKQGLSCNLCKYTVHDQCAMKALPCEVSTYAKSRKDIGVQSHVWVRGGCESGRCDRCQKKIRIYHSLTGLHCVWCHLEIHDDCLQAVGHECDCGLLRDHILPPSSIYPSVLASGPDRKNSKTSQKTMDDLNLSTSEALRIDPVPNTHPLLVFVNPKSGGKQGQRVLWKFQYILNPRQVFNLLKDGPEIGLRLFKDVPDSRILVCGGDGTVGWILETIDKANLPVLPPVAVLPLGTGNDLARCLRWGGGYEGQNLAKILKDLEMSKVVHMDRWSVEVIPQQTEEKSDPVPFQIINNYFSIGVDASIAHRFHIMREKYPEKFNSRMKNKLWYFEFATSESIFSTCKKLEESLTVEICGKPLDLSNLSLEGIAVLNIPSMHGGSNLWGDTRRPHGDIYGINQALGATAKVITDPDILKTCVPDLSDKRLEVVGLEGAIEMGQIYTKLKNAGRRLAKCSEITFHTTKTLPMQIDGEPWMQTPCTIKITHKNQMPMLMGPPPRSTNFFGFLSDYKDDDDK
# experiment: Human DGKα kinase activity inhibition assay (ADP-Glo)
# recorded conditions: recombinant full-length human DGKα, 55 μM ATP, 7 μM 1,2-dioleoyl-sn-glycerol, read-out: IC50 values of examples in in vitro human DGKa kinase activity inhibition assays
Could you please report measured pIC50 for the items listed next?
Hey, just a heads up that pIC50 is the negative log base 10 of the concentration in molar.

[ask] Reported pIC50 for Cc1ccc2oc(C3CCN(c4c(C(N)=O)c(=O)n(C)c5ccc(S(C)(=O)=O)cc45)CC3)nc2c1 : what is it?
[reply] 6.43

[ask] Same read-out for Cc1ccc2oc(C3(C)CCN(c4c(C#N)c(=O)n(C)c5cc(F)ccc45)CC3)nc2c1 ?
[reply] 8.30

[ask] Same read-out for Cn1c(=O)c(C#N)c(N2CCC(c3nc4cc(C5COC5)ccc4o3)CC2)c2ccccc21 ?
[reply] 7.66

[ask] Same read-out for Cc1ccc2nc(C3CCN(c4c(C(N)=O)c(=O)n(C)c5ccc(C)cc45)CC3)oc2c1 ?
[reply] 8.51

[ask] Same read-out for Cc1ccc2oc(C3CCN(c4c(C#N)c(=O)n(C)c5cc(OCC(N)=O)ccc45)CC3)nc2c1 ?
[reply] 9.00

[ask] Same read-out for Cn1cc(C(=O)C(F)(F)F)c2cc(C3CCN(c4c(C#N)c(=O)n(C)c5ccccc45)CC3)ccc21 ?
[reply] 7.52

[ask] Same read-out for Cc1ccccc1-n1ccc(C2CCN(c3c(C(N)=O)c(=O)n(C)c4ccccc34)CC2)n1 ?
[reply] 7.64

[ask] Same read-out for Cn1c(=O)c(C#N)c(N2CCC(c3nc4ccccc4o3)CC2)c2cc(C#N)ccc21 ?
[reply] 8.38

[ask] Same read-out for Cc1ccc2cc(C3CCN(c4c(C#N)c(=O)n(C)c5ccccc45)CC3)ccc2n1 ?
[reply] 7.85

[ask] Same read-out for COc1ccc(C2CCN(c3c(C#N)c(=O)n(C)c4cc(N5CCCC5=O)ccc34)CC2)cc1 ?
[reply] 7.70

[ask] Same read-out for Cc1ccc2oc(C3(C)CCN(c4c(C(N)=O)c(=O)n(C)c5ccc(Br)cc45)CC3)nc2c1 ?
[reply] 9.05

[ask] Same read-out for Cc1cc2c(N3CCC(c4ccn(-c5ccccc5C)n4)CC3)c(C#N)c(=O)n(C)c2cc1NCCO ?
[reply] 8.85

[ask] Same read-out for Cn1c(=O)c(C#N)c(N2CCC(c3ccccc3F)CC2)c2ccccc21 ?
[reply] 7.48

[ask] Same read-out for Cc1ccc2oc(C3(C)CCN(c4c(C(N)=O)c(=O)n(C)c5ccccc45)CC3)nc2c1 ?
[reply] 8.96

[ask] Same read-out for COC1(c2cc3ccccc3s2)CCN(c2c(C(N)=O)c(=O)n(C)c3ccccc23)CC1 ?
[reply] 8.72

[ask] Same read-out for Cc1ccc2nc(C3CCN(c4c(C#N)c(=O)n(C)c5ccc(C)cc45)CC3)oc2c1 ?
[reply] 8.82

[ask] Same read-out for COc1ccc2c(c1)c(N1CCC(c3nc4cc(C)ccc4o3)CC1)c(C#N)c(=O)n2C ?
[reply] 7.80

[ask] Same read-out for COc1ccc(C2CCN(c3c(C#N)c(=O)n(C)c4ccccc34)CC2)cc1 ?
[reply] 8.31

[ask] Same read-out for Cc1ccccc1-c1nnc(C2CCN(c3c(C(N)=O)c(=O)n(C)c4ccc(Br)cc34)CC2)o1 ?
[reply] 7.41

[ask] Same read-out for Cn1c(=O)c(C#N)c(N2CCC(C)(c3nc4ccccc4o3)CC2)c2ccc(Cl)cc21 ?
[reply] 8.89

[ask] Same read-out for Cn1c(=O)c(C#N)c(N2CCC(c3nc(-c4cccnc4)no3)CC2)c2ccccc21 ?
[reply] 6.80

[ask] Same read-out for Cn1nccc1C1CCN(c2c(C#N)c(=O)n(C)c3ccccc23)CC1 ?
[reply] 5.96

[ask] Same read-out for Cc1ccc2oc(C3CCN(c4c(C(N)=O)c(=O)n(C)c5c(Br)cccc45)CC3)nc2c1 ?
[reply] 7.10

[ask] Same read-out for Cc1ccc2oc(C3(C)CCN(c4c(C(N)=O)c(=O)n(C)c5cc(C)ccc45)CC3)nc2c1 ?
[reply] 9.15

[ask] Same read-out for Cc1ccc2oc(C3CCN(c4c(C#N)c(=O)n(C)c5ccc(C6(C(F)(F)F)CC6)cc45)CC3)nc2c1 ?
[reply] 7.68

[ask] Same read-out for Cc1ccc2oc(C3(F)CCN(c4c(C(N)=O)c(=O)n(C)c5cc(OC6CCOC6)ccc45)CC3)nc2c1 (centres unmarked) ?
[reply] 8.70

[ask] Same read-out for Cn1c(=O)c(C(N)=O)c(N2CCC(c3nc4ccccc4o3)CC2)c2ccc(F)cc21 ?
[reply] 8.35

[ask] Same read-out for Cn1c(=O)c(C#N)c(N2CCC(c3ccc4ccncc4c3)CC2)c2ccccc21 ?
[reply] 7.32

[ask] Same read-out for Cn1c(C2CCN(c3c(C#N)c(=O)n(C)c4ccccc34)CC2)nc2ccccc21 ?
[reply] 6.45

[ask] Same read-out for COc1cccc(C2CCN(c3c(C#N)c(=O)n(C)c4ccccc34)CC2)c1 ?
[reply] 7.85

[ask] Same read-out for Cc1ccc2c(N3CCC(c4nc5ccccc5o4)CC3)c(C(N)=O)c(=O)n(C)c2c1 ?
[reply] 8.77

[ask] Same read-out for Cc1ccc2oc(C3CCN(c4c(C#N)c(=O)n(C)c5cc(Cl)ccc45)CC3)nc2c1 ?
[reply] 8.52

Where do the numbers come from? From patent US11998539B2.
